So I've got a bunch of compounds here, and I need their inhibition values.
molecular target: SARS-CoV-2 Main Protease (SARS-CoV-2) (UniProt P0DTD1); settings: 50.0 µM
Give the number; % is assumed, so skip it.

QUERY: Report its inhibition with SARS-CoV-2 Main Protease (SARS-CoV-2) (UniProt P0DTD1) as the test system: O=C(C(F)Cl)N1CCN(Cc2cccc3ccccc23)CC1 (centres undefined)
RESULT: 29.5

QUERY: Report its inhibition with SARS-CoV-2 Main Protease (SARS-CoV-2) (UniProt P0DTD1) as the test system: O=C(CCl)N1CCCC(c2nc(-c3cccnc3)nc3ccccc23)C1 (centres undefined)
RESULT: 31.8

QUERY: Report its inhibition with SARS-CoV-2 Main Protease (SARS-CoV-2) (UniProt P0DTD1) as the test system: `O=C(c1cc(=O)[nH]c2ccc(F)cc12)N1CCN(S(=O)(=O)c2cccc(Cl)c2)CC1`
RESULT: 25.7

QUERY: Report its inhibition with SARS-CoV-2 Main Protease (SARS-CoV-2) (UniProt P0DTD1) as the test system: `O=C(Nc1cnccc1Cl)c1cc(Cl)ccc1O`
RESULT: 75.2

QUERY: Report its inhibition with SARS-CoV-2 Main Protease (SARS-CoV-2) (UniProt P0DTD1) as the test system: `O=C(Nc1cccnc1)Nc1cncc(Cl)c1`
RESULT: 16.8

QUERY: Report its inhibition with SARS-CoV-2 Main Protease (SARS-CoV-2) (UniProt P0DTD1) as the test system: `CNC(=O)OC1CCN(Cc2ccccc2)CC1`
RESULT: 17.6

QUERY: Report its inhibition with SARS-CoV-2 Main Protease (SARS-CoV-2) (UniProt P0DTD1) as the test system: `O=[N+]([O-])c1cnc(Sc2nnc(-c3ccco3)n2-c2ccc(OCc3ccccc3)cc2)s1`
RESULT: 94.4

QUERY: Report its inhibition with SARS-CoV-2 Main Protease (SARS-CoV-2) (UniProt P0DTD1) as the test system: `N#Cc1cncc(NC(=O)Cc2c[nH]c3ncccc23)c1`
RESULT: 0.0775

QUERY: Report its inhibition with SARS-CoV-2 Main Protease (SARS-CoV-2) (UniProt P0DTD1) as the test system: `CC(C)N(C)C(=O)C1CCN(C(=O)CCl)CC1`
RESULT: 38.8

QUERY: Report its inhibition with SARS-CoV-2 Main Protease (SARS-CoV-2) (UniProt P0DTD1) as the test system: O=C(Nc1ccnnc1)NC(Cc1ccccc1)C(=O)N1CCCC1 (centres undefined)
RESULT: 3.23

QUERY: Report its inhibition with SARS-CoV-2 Main Protease (SARS-CoV-2) (UniProt P0DTD1) as the test system: `NS(=O)(=O)c1ccc2c(c1)CN(CC1CCN(C(=O)CCl)CC1)CC2`
RESULT: 60.3

QUERY: Report its inhibition with SARS-CoV-2 Main Protease (SARS-CoV-2) (UniProt P0DTD1) as the test system: C=CC(=O)N(c1ccc2ncsc2c1)C(C(=O)Nc1ccc(OC)cc1)c1cccnc1 (centres undefined)
RESULT: 15.4

QUERY: Report its inhibition with SARS-CoV-2 Main Protease (SARS-CoV-2) (UniProt P0DTD1) as the test system: `O=C(Cc1c[nH]c2ncccc12)Nc1cccc(Cl)c1`
RESULT: 9.34

QUERY: Report its inhibition with SARS-CoV-2 Main Protease (SARS-CoV-2) (UniProt P0DTD1) as the test system: `Cc1ccncc1CC(=O)Nc1cccc(Cl)c1`
RESULT: 67.4

QUERY: Report its inhibition with SARS-CoV-2 Main Protease (SARS-CoV-2) (UniProt P0DTD1) as the test system: `O=C(Nc1ccc([N+](=O)[O-])cc1Cl)c1cc(Cl)ccc1O`
RESULT: -22.8

QUERY: Report its inhibition with SARS-CoV-2 Main Protease (SARS-CoV-2) (UniProt P0DTD1) as the test system: C=CC(=O)N1CCCC(N(CC2CCCCC2)C2CCC(O)CC2)C1 (centres undefined)
RESULT: -0.824

QUERY: Report its inhibition with SARS-CoV-2 Main Protease (SARS-CoV-2) (UniProt P0DTD1) as the test system: CC(C)n1cnnc1CNC(=O)C1CCOc2ccccc21 (centres undefined)
RESULT: -1.11

QUERY: Report its inhibition with SARS-CoV-2 Main Protease (SARS-CoV-2) (UniProt P0DTD1) as the test system: `CCn1c(=O)c(-c2cc[nH]n2)cc2c(C)nc(N)nc21`
RESULT: 4.38

QUERY: Report its inhibition with SARS-CoV-2 Main Protease (SARS-CoV-2) (UniProt P0DTD1) as the test system: CCC(C)CC(=O)N1CCCC(NC(=O)Cn2c(C)cc(C)nc2=O)CC1 (centres undefined)
RESULT: -19.4

QUERY: Report its inhibition with SARS-CoV-2 Main Protease (SARS-CoV-2) (UniProt P0DTD1) as the test system: `Cc1ccncc1NC(=O)Cc1cccc(I)c1`
RESULT: 39.7

QUERY: Report its inhibition with SARS-CoV-2 Main Protease (SARS-CoV-2) (UniProt P0DTD1) as the test system: `O=C(c1cc(=O)[nH]c2ccccc12)N1CCN(c2ccccc2F)CC1`
RESULT: 75.6

QUERY: Report its inhibition with SARS-CoV-2 Main Protease (SARS-CoV-2) (UniProt P0DTD1) as the test system: `Cc1ccc(NC(=O)Cc2cccc(Cl)c2)cn1`
RESULT: 3.35

QUERY: Report its inhibition with SARS-CoV-2 Main Protease (SARS-CoV-2) (UniProt P0DTD1) as the test system: `O=C(NCc1cncs1)Nc1cccc(N2CCOCC2)c1`
RESULT: 13.6

QUERY: Report its inhibition with SARS-CoV-2 Main Protease (SARS-CoV-2) (UniProt P0DTD1) as the test system: CC(C)Cn1cc(NC(=O)NCC2CCCO2)c2ccccc2c1=O (centres undefined)
RESULT: 6.75
